Source listed as patent US7973069B2.

- Tested on: HCV replicon
- Format: cell-based
Item-by-item account of IC50
RECORDED_METRIC: IC50

>>> df
                                   compound        value
0  CC(C)OC(=O)Nc1ccc(-c2c(C#N)c3ccc(OCc4cccnc4)cc3n2C2CCC2)cc1     < 0.5 µM
1  CCOc1ccc2c(c1)c(C#N)c(-c1ccc(NC(=O)NC(C)C)cc1)n2C1CCC1 [Compound 1223]     < 0.5 µM
2  CCn1c(-c2ccc(NC(=O)NC(C)C)cc2)c(C#N)c2ccc(OC(F)F)cc21  0.5 to 2 µM
3  CCOc1ccc2c(C#N)c(-c3ccc(NS(=O)(=O)C4CC4)cc3)n(C3CCC3)c2c1     < 0.5 µM

---

- System: HCV replicon
- Assay type: cell-based
RECORDED_METRIC: IC50

>>> print(df.to_string())
                                   compound        value
0  CCCCNC(=O)Nc1ccc(-c2c(C#N)c3ccc(OC(F)(F)F)cc3n2CC)cc1 [Compound 894]  0.5 to 2 µM
1  CCn1c(-c2ccc(NC(=O)N3CCOCC3)cc2)c(C#N)c2ccc(OC)cc21 [Compound 1087]  0.5 to 2 µM
2  CCCn1c(-c2ccc(NS(=O)(=O)C3CC3)cc2)c(C#N)c2cc(OC)ccc21 [Compound 998]  0.5 to 2 µM
3  CC(C)NC(=O)Nc1ccc(-c2c(C#N)c3cc4c(cc3n2C2CCC2)OCO4)cc1 [Compound 1303]  0.5 to 2 µM
4  COc1ccc2c(c1)c(C#N)c(-c1ccc(NC(=O)OCC(C)C)cc1)n2C1CCC1 [Compound 1178]     < 0.5 µM
5  CC(C)n1c(-c2ccc(NC(=O)O[C@H](C)C3CC3)cc2)c(C#N)c2ccc(Oc3ncccn3)cc21 [Compound 2208]     < 0.5 µM
6  C=CCOC(=O)Nc1ccc(-c2c(C#N)c3cc(OC)c(OC)cc3n2CC)cc1 [Compound 1111]  0.5 to 2 µM
7  CCn1c(-c2ccc(NS(=O)(=O)C(C)C)cc2)c(C#N)c2ccc(OCCF)cc21 [Compound 912]  0.5 to 2 µM

---

Item-by-item account of IC50
- Tested on: HCV replicon
- Assay type: cell-based
RECORDED_METRIC: IC50

In [3]: df
Out[3]:
                                   molecule        target  recorded_metric        value
0  CCOc1ccc2c(C#N)c(-c3cccc(NC(=O)OCC(C)C)c3)n(C3CCC3)c2c1 [Compound 1037]  HCV replicon             IC50  0.5 to 2 µM
1  CCn1c(-c2ccc(NC(=O)OCCCl)cc2)c(C#N)c2ccc(OCCCN3CCOCC3)cc21 [Compound 1114]  HCV replicon             IC50     < 0.5 µM
2  CCOc1ccc2c(C#N)c(-c3ccc(NC(=O)NC(C)C)cc3)n(C3CCC3)c2c1 [Compound 1080]  HCV replicon             IC50     < 0.5 µM
3  CCn1c(-c2ccc(NS(=O)(=O)CC)c(C)c2)c(C#N)c2ccc(OC)cc21 [Compound 960]  HCV replicon             IC50  0.5 to 2 µM
4  CCCOc1ccc2c(C#N)c(-c3ccc(NC(=O)OC4CCOCC4)cc3)n(C(C)C)c2c1 [Compound 1248]  HCV replicon             IC50     < 0.5 µM
5  CCn1c(-c2ccc(N3CCOC3=O)cc2)c(C#N)c2ccc(OCCCn3cncn3)cc21 [Compound 1084]  HCV replicon             IC50  0.5 to 2 µM
6  N#Cc1c(-c2ccc(NC(=O)NC3CCC3)cc2)n(C2CCC2)c2cc(OCC3CCCO3)ccc12 (centres unmarked) [Compound 1288]  HCV replicon             IC50     < 0.5 µM
7  CCCNC(=O)Nc1ccc(-c2c(C#N)c3ccc(OCC)cc3n2CCC)cc1 [Compound 1095]  HCV replicon             IC50     < 0.5 µM

---

Item-by-item account of IC50
- Tested on: HCV replicon
- Assay type: cell-based
RECORDED_METRIC: IC50

In [3]: df
Out[3]:
                                   compound        value
0  CCCCS(=O)(=O)Nc1ccc(-c2c(C#N)c3ccc(OC(F)(F)F)cc3n2CC)cc1     < 0.5 µM
1  COCCN(C)CCOc1ccc2c(C#N)c(-c3ccc(NC(=O)OC(C)C)cc3)n(C3CCC3)c2c1     < 0.5 µM
2  CCOc1ccc2c(C#N)c(-c3ccc(NC(=O)OC(C)c4ccccc4)cc3)n(C3CCC3)c2c1 (centres unmarked)     < 0.5 µM
3  CCOc1ccc2c(C#N)c(-c3ccc(N(CC)C(=O)OC(C)C)cc3)n(C3CC3)c2c1  0.5 to 2 µM
4  CCCOC(=O)Nc1ccc(-c2c(C#N)c3ccc(OC)cc3n2C2CCC2)cc1  0.5 to 2 µM
5  CCN(C)CCOc1ccc2c(C#N)c(-c3ccc(NC(=O)NC(C)C)cc3)n(C3CCC3)c2c1     < 0.5 µM
6  CCn1c(-c2ccc(NC(=O)OCCF)cc2)c(C#N)c2ccc(OC(F)(F)F)cc21  0.5 to 2 µM
7  CCCCn1c(-c2ccc(NC(=O)NCCc3ccccc3)cc2)c(C#N)c2ccc(OCC)cc21     < 0.5 µM

---

- Test system: HCV replicon
- Type: cell-based
Item-by-item account of IC50
RECORDED_METRIC: IC50

>>> print(df.to_string())
                                   molecule  recorded_metric        value
0  CCCn1c(-c2ccc(NC(=O)NC(C)CC)cc2)c(C#N)c2ccc(OC)cc21 (stereo not shown) [Compound 1119]             IC50  0.5 to 2 µM
1  CCCOc1ccc2c(C#N)c(-c3ccc(NC(=O)OCC(C)C)cc3)n(C(C)C)c2c1 [Compound 1206]             IC50     < 0.5 µM
2  CCOC(=O)Nc1ccc(-c2c(C#N)c3ccc(OC)cc3n2CC2CC2)cc1 [Compound 984]             IC50  0.5 to 2 µM
3  CCn1c(-c2ccc(NS(=O)(=O)CC)cc2)c(C#N)c2ccc(OCCCN3CCOCC3)cc21 [Compound 1115]             IC50  0.5 to 2 µM

---

- Test system: HCV replicon
- Assay type: cell-based
Item-by-item account of IC50
RECORDED_METRIC: IC50

>>> print(df.to_string())
                                   compound        value
0  CCn1c(-c2ccc(NS(=O)(=O)C3CC3)cc2)c(C#N)c2ccc(OC(F)F)cc21 [Compound 929]     < 0.5 µM
1  CC(C)NC(=O)Nc1ccc(-c2c(C#N)c3ccc(OCCn4ccnc4)cc3n2C2CCC2)cc1 [Compound 1322]     < 0.5 µM
2  N#Cc1c(-c2ccc(NC(=O)OC3CCCC3)cc2)n(C2CCC2)c2cc(OC(F)F)ccc12 [Compound 1186]  0.5 to 2 µM
3  COCn1c(-c2ccc(N3CCCS3(=O)=O)cc2)c(C#N)c2ccc(OC)cc21 [Compound 990]  0.5 to 2 µM
4  CCCn1c(-c2ccc(NS(C)(=O)=O)cc2)c(C#N)c2ccc(OCc3ccccc3)cc21 [Compound 921]  0.5 to 2 µM
5  C=CCNC(=O)Nc1ccc(-c2c(C#N)c3ccc(OCCCN4CCOCC4)cc3n2CC)cc1 [Compound 1125]     < 0.5 µM
6  COc1ccc2c(C#N)c(-c3ccc(NC(=O)NC(C)C)cc3)n(CC3CC3)c2c1 [Compound 987]  0.5 to 2 µM
7  CCNC(=O)Nc1ccc(-c2c(C#N)c3ccc(OC)cc3n2CC)cc1C [Compound 966]  0.5 to 2 µM

---

Item-by-item account of IC50
- System: HCV replicon
- Assay type: cell-based
RECORDED_METRIC: IC50

>>> print(df.to_string())
                                item_smiles        value
0  CCOc1ccc2c(C#N)c(-c3ccc(NC(=O)NC4CC4)cc3)n(C3CCC3)c2c1  0.5 to 2 µM
1  CC(C)OC(=O)Nc1ccc(-c2c(C#N)c3ccc(OCCCn4ccnc4)cc3n2C2CCC2)cc1     < 0.5 µM
2  N#Cc1c(-c2ccc(NC(=O)OC3CCCC3)cc2)n(C2CCC2)c2cc(OCc3cccnc3)ccc12     < 0.5 µM
3  CCCCn1c(-c2ccc(NC(=O)NCC)cc2)c(C#N)c2ccc(OCC)cc21  0.5 to 2 µM
